meta.source: patent US9822139B2

Catalogue of IC50 readings, one per entry.
Test system: nasopharyngeal carcinoma (SUNE1)
Test: MTT cytotoxicity assay, SUNE1
Assay type: cell-based, human
Conditions: 72 h
A complete answer gives the number followed by the unit.

Examples with answers:
| COMPOUND | READOUT | VALUE REPORTED |
| --- | --- | --- |
| CCn1cc[n+](CC)[c]1[Pt-2]12[c]3ccccc3-c3cccc([n+]31)-c1cccc[n+]12.F[P-](F)(F)(F)(F)F (centres unmarked) | IC50 | 320 nM |
| CCCCn1cc[n+](CCCC)[c]1[Pt-2]12[c]3ccccc3-c3cccc([n+]31)-c1cccc[n+]12.F[P-](F)(F)(F)(F)F (centres unmarked) | IC50 | 140 nM |
| Cc1cc(C)c(-[n+]2ccn(CCCO)[c]2[Pt-2]23[c]4ccccc4-c4cccc([n+]42)-c2cccc[n+]23)c(C)c1.F[P-](F)(F)(F)(F)F (centres unmarked) | IC50 | 940 nM |
| CCCCn1cc[n+](C[n+]2ccn(CCCC)[c]2[Au-]23[c]4ccccc4-c4cccc([n+]42)-c2cccc[c]23)[c]1[Au-]12[c]3ccccc3-c3cccc([n+]31)-c1cccc[c]12.O=S(=O)([O-])C(F)(F)F.O=S(=O)([O-])C(F)(F)F | IC50 | 3300 nM |

Consider the additional compound presented here.
Item Cn1cc[n+](C)[c]1[Pt-2]12[c]3ccccc3-c3cccc([n+]31)-c1cccc[n+]12.F[P-](F)(F)(F)(F)F (centres unmarked) has what recorded IC50?
510 nM
